target: T1, COVID S1 RBD Fc fusion (Antigen 1) (SARS-CoV-2, UniProt P0DTC2 319-541); assay: phage ELISA
T1 construct: domain: RBD
Binarize ELISA fold over background at 20 fold over background; below is Condition met, at or above is Condition not met.

- 1-23 (antibody, V domains shown, also called variant 1-23) VH: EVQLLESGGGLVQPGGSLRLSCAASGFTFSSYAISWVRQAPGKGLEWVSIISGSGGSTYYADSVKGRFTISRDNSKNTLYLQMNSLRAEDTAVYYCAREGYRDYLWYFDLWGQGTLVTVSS VL: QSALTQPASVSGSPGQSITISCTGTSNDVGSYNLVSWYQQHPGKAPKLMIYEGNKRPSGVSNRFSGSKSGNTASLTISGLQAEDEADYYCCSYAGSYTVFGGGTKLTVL: Condition met
- 1-24 (antibody, V domains shown, also called variant 1-24) VH: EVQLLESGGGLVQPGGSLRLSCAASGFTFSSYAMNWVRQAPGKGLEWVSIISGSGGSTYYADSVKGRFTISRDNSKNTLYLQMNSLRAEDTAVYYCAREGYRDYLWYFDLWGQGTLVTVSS VL: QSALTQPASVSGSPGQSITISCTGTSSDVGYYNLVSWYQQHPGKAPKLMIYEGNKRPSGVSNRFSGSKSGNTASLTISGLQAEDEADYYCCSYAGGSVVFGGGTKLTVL: Condition met
- 1-7 (antibody, V domains shown, also called variant 1-7) VH: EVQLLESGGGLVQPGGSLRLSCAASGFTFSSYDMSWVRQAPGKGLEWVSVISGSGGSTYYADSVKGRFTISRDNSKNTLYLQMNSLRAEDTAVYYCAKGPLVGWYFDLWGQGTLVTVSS VL: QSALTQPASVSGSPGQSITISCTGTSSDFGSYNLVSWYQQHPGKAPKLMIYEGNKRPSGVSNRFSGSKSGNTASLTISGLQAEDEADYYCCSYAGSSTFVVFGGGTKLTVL: Condition met
- 1-47 (antibody, V domains shown, also called variant 1-47) VH: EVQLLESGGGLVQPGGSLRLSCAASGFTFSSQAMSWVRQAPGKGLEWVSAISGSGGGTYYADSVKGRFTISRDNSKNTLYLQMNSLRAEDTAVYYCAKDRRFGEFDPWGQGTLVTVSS VL: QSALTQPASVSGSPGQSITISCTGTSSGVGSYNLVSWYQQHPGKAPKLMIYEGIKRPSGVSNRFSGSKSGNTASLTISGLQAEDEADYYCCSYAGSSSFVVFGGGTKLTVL: Condition met
- 1-42 (antibody, V domains shown, also called variant 1-42) VH: EVQLLESGGGLVQPGGSLRLSCAASGVTFSSYAMSWVRQAPGKGLEWVSAITGSGGSTYYADSVKGRFTISRDNSKNTLYLQMNSLRAEDTAVYYCAKHGSGTIFGVVIAKYYFDYWGQGTLVTVSS VL: QSALTQPASVSGSPGQSITISCTGTSSDVGRYNLVSWYQQHPGKAPKLMIYEGGKRPSGVSNRFSGSKSGNTASLTISGLQAEDEADYYCCSYASSSTLVFGGGTKLTVL: Condition not met
- 1-10 (antibody, V domains shown, also called variant 1-10) VH: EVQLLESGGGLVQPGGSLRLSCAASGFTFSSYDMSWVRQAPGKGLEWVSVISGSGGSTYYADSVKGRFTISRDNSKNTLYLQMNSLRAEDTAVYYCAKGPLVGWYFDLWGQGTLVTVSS VL: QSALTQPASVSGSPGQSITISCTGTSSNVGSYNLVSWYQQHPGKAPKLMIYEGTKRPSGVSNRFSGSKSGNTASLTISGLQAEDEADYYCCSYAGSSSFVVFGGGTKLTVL: Condition met
